- Tested on: HT29 colon
- Assay Info: NCI-60 one-dose screen, 48 h
- Assay Context: 10 µM unless noted
Compounds without any hit were thinned out: in the full panel of roughly 83,000, 20% have a hit. The source made the active and inactive calls. How the source made its calls: active means growth percent below 10; inactive means the rest.
Bench note: report the call from t (active), f (inactive)

Solved cases below.
Compound: O=C(O)c1cn(C2CC2)c2cc(N3CCN(C(=O)CSc4nnc(-c5ccc(Cl)cc5)n4-c4ccccc4)CC3)c(F)cc2c1=O
Tested System: HT29 colon
Category: f
//
Compound: COc1ccc(C(=S)c2cc(OC)c(OC)c(OC)c2)cc1OC(=O)CCl
Tested System: HT29 colon
Category: f
//
Compound: CCCCn1c(=O)c(/C=C/C(=O)/C=C/c2cc3ccccc3n(CCCC)c2=O)cc2ccccc21
Tested System: HT29 colon
Category: t
//
Compound: C=C1C(=O)O[C@H]2[C@H]1CC/C(COC(=O)c1cccnc1)=C\CC[C@@]1(C)O[C@@H]21
Tested System: HT29 colon
Category: f
//
Compound: Nc1c(C(=O)Nc2ccccn2)sc2nc3c(cc12)CCCC3
Tested System: HT29 colon
Category: f
//
Compound: COc1cc(C(C)c2ccc3c(ccn3C)c2)cc(OC)c1OC (stereo unspecified)
Tested System: HT29 colon
Category: t

Please indicate how the test categorized `N#Cc1c(-c2ccc(F)cc2)nc(N/N=C/c2c[nH]c3ccccc23)nc1N1CCOCC1` . f

How did this test come out for `N#Cc1c(-c2ccc(F)cc2)nc(N=Nc2c(O)[nH]c3ccc(Cl)cc23)nc1N1CCOCC1` ? f

Assay result, entry `COC(=O)c1ccc2c(c1)NC(=O)[C@@H]1CCCN21` — outcome? f

Given `COc1cc(NC(=O)c2cc(O)c(C/C=C(\C)CCC=C(C)C)c(O)c2)cc2c1O[C@]1(C)CC[C@@H](O)C(C)(C)[C@H]1C2` , state the outcome it received in this test. t
